koff values by entry
# assay-system: T1, mouse TrkB monomer (His ECD) (mouse, UniProt P15209 32-429)
# T1 construct: extracellular domain; amine-coupled to the chip
# T1 sequence (P15209 32-429): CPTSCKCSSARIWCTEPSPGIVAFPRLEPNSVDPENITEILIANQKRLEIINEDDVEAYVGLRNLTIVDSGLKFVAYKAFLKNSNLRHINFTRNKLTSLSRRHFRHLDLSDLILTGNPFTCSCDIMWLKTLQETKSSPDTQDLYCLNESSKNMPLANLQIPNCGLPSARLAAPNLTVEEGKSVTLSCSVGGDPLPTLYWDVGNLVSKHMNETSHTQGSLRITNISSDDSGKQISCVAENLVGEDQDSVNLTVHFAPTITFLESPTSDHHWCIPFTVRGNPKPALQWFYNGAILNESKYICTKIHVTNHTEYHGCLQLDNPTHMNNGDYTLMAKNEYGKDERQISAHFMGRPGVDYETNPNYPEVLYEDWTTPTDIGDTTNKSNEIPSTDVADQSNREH
# measurement-description: SPR (Biacore), Fab over amine-coupled TrkB His ECD monomer, 25 C
Express the result in s⁻¹ but write the number alone.

// below: answered binders
C2 (Fab, V domains shown, Fab) VH: QVQLVQSGAEVKKPGASVKVSCKASGYTFTNYDIIWVRQAPGQGLEWMGYINPYNDGTKYNEKFKGRVTMTRDTSTSTVYMELSSLRSEDTAVYYCARLLKYRRFRYYAIDYWGQGTTVTVSS VL: DIQMTQSPSSLSASVGDRVTITCRTSENVYSNLAWYQQKPGKAPKLLIYAASNLQSGVPSRFSGSGSGTDYTFTISSLQPEDIATYYCQHFWGSPFTFGQGTKLEIK	0.000734
4A6 (Fab, V domains shown, Fab) VH: QVQLVQSGAEVKKPGASVKVSCKASGYTFTNYDIIWVRQAPGQGLEWMGYINPYNRRREYNEKFKGRVTMTRDTSTSTVYMELSSLRSEDTAVYYCARLLKYRRFRYYAIDYWGQGTTVTVSS VL: DIQMTQSPSSLSASVGDRVTITCHASENVYSNLAWYQQKPGKAPKLLIYAASNLQSGVPSRFSGSGSGTDYTFTISSLQPEDIATYYCQHFWGSPFTFGQGTKLEIK	9.24e-05
A2 (Fab, V domains shown, Fab) VH: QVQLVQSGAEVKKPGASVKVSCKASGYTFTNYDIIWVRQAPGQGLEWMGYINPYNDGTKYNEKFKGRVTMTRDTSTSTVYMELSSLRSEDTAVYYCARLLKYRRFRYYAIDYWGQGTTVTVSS VL: DIQMTQSPSSLSASVGDRVTITCRASENVYSNLAWYQQKPGKAPKLLIYAASNLQSGVPSRFSGSGSGTDYTFTISSLQPEDIATYYCQHFWYSPWTFGQGTKLEIK	0.000636

Read the next record carefully.
What does the data say about its koff? Entry: 4B12 (Fab, V domains shown, Fab) VH: QVQLVQSGAEVKKPGASVKVSCKASGYTFTNYDIIWVRQAPGQGLEWMGYINPYNGRREYNEKFKGRVTMTRDTSTSTVYMELSSLRSEDTAVYYCARLLKYRRFRYYAIDYWGQGTTVTVSS VL: DIQMTQSPSSLSASVGDRVTITCRASEPVYSNVAWYQQKPGKAPKLLIYAASNLQSGVPSRFSGSGSGTDYTFTISSLQPEDIATYYCQHFWGSPFTFGQGTKLEIK
0.000146
